Values were extracted from the RNAGym collection of RNA variant scans (doi:10.1101/gr.219683.116).

B1: mRNA-splicing (parent)
chain: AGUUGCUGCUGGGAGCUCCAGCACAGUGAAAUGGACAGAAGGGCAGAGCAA

- Variants of: B1
- experimentalProtocol: exon inclusion enrichment index; higher = more inclusion; WT1 exon 5 minigene, HEK293
Where exon inclusion enrichment index equals or exceeds 2, the correct label is YES; where it does not, the label is NO.

These recorded examples may help you get a feel for the data.
mutant	assignedLabel
G5C C6G U7A G8A U10C	YES
C6A U7A C9A U10A G43C C44G	YES
C6A U7C C9A U10C C36U A37G	YES
A35U C36U	NO
G5A U7C G8A U10C C16U U17G	NO
G5A U7C G8A U10C G13A A14C	YES
C6A U7C C9A U10C G38C	YES
C6A U7A C9A U10A A20U G21U	NO

Task: Determine whether this variant has exon inclusion enrichment index no lower than 2: U4C G5C U7C G8A U10C
Output: NO

Task: Determine whether this variant has exon inclusion enrichment index no lower than 2: G5A U7C G8A U10C U17A C18A
Output: NO

Task: Determine whether this variant has exon inclusion enrichment index no lower than 2: G5U G8U C9U G41U G42C
Output: NO

Task: Determine whether this variant has exon inclusion enrichment index no lower than 2: G5A C6G U7G C9A U32A
Output: NO

Task: Determine whether this variant has exon inclusion enrichment index no lower than 2: G5A C6A U7A G8U C9A
Output: NO

Task: Determine whether this variant has exon inclusion enrichment index no lower than 2: C36U A37G
Output: NO

Task: Determine whether this variant has exon inclusion enrichment index no lower than 2: G5C U7C G8A U10A
Output: NO

Task: Determine whether this variant has exon inclusion enrichment index no lower than 2: G5A U7C G8A U10C C36A A37C
Output: YES

Task: Determine whether this variant has exon inclusion enrichment index no lower than 2: G5C C6G U7C U10C A45U G46A
Output: YES

Task: Determine whether this variant has exon inclusion enrichment index no lower than 2: A30G A31U
Output: NO

Task: Determine whether this variant has exon inclusion enrichment index no lower than 2: G5A U7C G8A U10C U27C G28C
Output: YES

Task: Determine whether this variant has exon inclusion enrichment index no lower than 2: C6U G8U C9U
Output: NO

Task: Determine whether this variant has exon inclusion enrichment index no lower than 2: G5U U7G G8U C9U
Output: NO

Task: Determine whether this variant has exon inclusion enrichment index no lower than 2: G5A C6U U7A G8U C9A G15A
Output: NO

Task: Determine whether this variant has exon inclusion enrichment index no lower than 2: G5A U7G G8C U10C
Output: YES

Task: Determine whether this variant has exon inclusion enrichment index no lower than 2: C6A U7C C9A U10C U27A G28A
Output: YES

Task: Determine whether this variant has exon inclusion enrichment index no lower than 2: G5C C6U G8C C9U U10C A23C C24G
Output: YES

Task: Determine whether this variant has exon inclusion enrichment index no lower than 2: G2C C6A U7C C9A U10C
Output: YES

Task: Determine whether this variant has exon inclusion enrichment index no lower than 2: G5A C6U U7A G8U C9A G21A C22U
Output: NO

Task: Determine whether this variant has exon inclusion enrichment index no lower than 2: G5C C6A U7C G8A U10A G33C
Output: NO

Task: Determine whether this variant has exon inclusion enrichment index no lower than 2: G5A C6G U7G C9A A29C A30C
Output: NO

Task: Determine whether this variant has exon inclusion enrichment index no lower than 2: A23C C24G
Output: YES

Task: Determine whether this variant has exon inclusion enrichment index no lower than 2: G5A C6U G8A C9A
Output: NO
